Source of measurements: patent US20260285850A1

# Test system: barnyardgrass (Echinochloa crus-galli)
# Protocol description: Test A preemergence soil spray, visual injury rating 0-100
# Assay type: in vivo
# Condition description: 62 g ai/ha, 10 days, 0 = no effect, 100 = complete control
Kindly apply the following: YES if Barnyardgrass plant response rating (0-100) is less than 20, NO in every other case.

As a guide, the following entries are already answered.
> print(dat)
                                   compound  class.assignment
1  C=CC1(C(=O)NC2COC(C(=O)OC)C2)CN(c2cc(F)cc(F)c2)C(=O)O1 (stereo not shown) [Compound 171]                NO
2  CC1(C(=O)NC2C=CC(C(=O)O)C2)CN(c2cc(Cl)c(F)c(Cl)c2)C(=O)O1 (stereo not shown)                NO
3  CC1(C(=O)NC2CC=C(C(=O)NS(C)(=O)=O)C2)CN(c2cc(F)cc(F)c2)C(=O)O1 (racemic)               YES
4  COC(=O)C1CC(NC(=O)C2(C)CN(c3cc(F)cc(F)c3)C(=O)O2)C1 (stereo not shown)                NO

Q: Determine whether this compound shows Barnyardgrass plant response rating (0-100) lower than 20 (ties excluded): CC1(C(=O)NC2CC=C(C(=O)OCC(F)F)C2)CN(c2cc(F)cc(F)c2)C(=O)O1 (stereo not shown)
Ans: YES

Q: Determine whether this compound shows Barnyardgrass plant response rating (0-100) lower than 20 (ties excluded): COC(=O)C1=CCC(NC(=O)C2(C)CN(c3cc(Cl)cc(Cl)c3)C(=O)O2)C1 (stereo not shown)
Ans: YES

====

The reader will find reported Corn plant response rating (0-100) values listed item by item below.
# Tested on: corn (Zea mays)
# Protocol description: Test A postemergence application, visual injury rating 0-100
# Assay type: in vivo
# Condition description: 31 g ai/ha, postemergence, 10 days, 0 = no effect, 100 = complete control
# Excerpt: […]

Reference set, count: 8
> print(dat)
                                   molecule  measurement.target                     outcome.measure  recorded.measurement
1  CC1(C(=O)NC2C=CC(C(=O)OC3CCCC3)C2)CN(c2cc(Cl)cc(Cl)c2)C(=O)O1 (centres unmarked)     corn (Zea mays)  Corn plant response rating (0-100)                    90
2  CC1(C(=O)NC2CCC(C(=O)O)C2)CN(c2cc(F)cc(Cl)c2)C(=O)O1 (centres unmarked)     corn (Zea mays)  Corn plant response rating (0-100)                    90
3  CCOC(=O)C1=CCC(NC(=O)C2(C)CN(c3cc(Cl)cc(Cl)c3)C(=O)O2)C1 (centres unmarked)     corn (Zea mays)  Corn plant response rating (0-100)                    90
4  CCOC(=O)C1C=CC(NC(=O)C2(C)CN(c3cc(F)cc(Cl)c3)C(=O)O2)C1 (centres unmarked)     corn (Zea mays)  Corn plant response rating (0-100)                   100
5  CCOC(=O)C1CCC(NC(=O)C2(C)CN(c3cc(F)cc(Cl)c3)C(=O)O2)C1 (centres unmarked)     corn (Zea mays)  Corn plant response rating (0-100)                    50
6  CONC(=O)C1CC(NC(=O)C2(C)CN(c3cc(F)cc(F)c3)C(=O)O2)CO1 (centres unmarked)     corn (Zea mays)  Corn plant response rating (0-100)                    20
7  COC(=O)C1=CCC(NC(=O)C2(C)CN(c3cc(F)cc(F)c3)C(=O)O2)C1 (single isomer, unassigned)     corn (Zea mays)  Corn plant response rating (0-100)                    40
8  CC(C)OC(=O)C1CCC(NC(=O)C2(C)CN(c3cc(F)cc(F)c3)C(=O)O2)C1 (centres unmarked)     corn (Zea mays)  Corn plant response rating (0-100)                    20

Q: Specify Corn plant response rating (0-100) for CC(C)COC(=O)C1=CCC(NC(=O)C2(C)CN(c3cc(F)cc(F)c3)C(=O)O2)C1 (centres unmarked) , system corn (Zea mays).
Ans: 90

Q: Specify Corn plant response rating (0-100) for CSCCOC(=O)C1=CCC(NC(=O)C2(C)CN(c3cc(F)cc(F)c3)C(=O)O2)C1 (centres unmarked) , system corn (Zea mays).
Ans: 50

Q: Specify Corn plant response rating (0-100) for CC(C)OC(=O)C1CC(NC(=O)C2(C)CN(c3cc(F)cc(F)c3)C(=O)O2)CO1 (centres unmarked) , system corn (Zea mays).
Ans: 0
